measurementDescription: chemical genetic growth profiling, strain panel (AID 1159580);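 also: tested at 20 µM; growth read once vehicle control cultures reached saturation at 30 °C; 1 = growth at the plate median or of vehicle wells; lower values mean less growth of the strain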
experimentalContext: S. cerevisiae deletion strains, growth OD, locus YPR119W, strain clb2, active compounds read low
Hit rate of the full screen: of about 5,500 compounds, about 2,000 (36%) were called active. About 18% were inconclusive and are not listed. The list shows a part of the results.
assayEndpoint: normalized growth

compound | assayEndpoint | recordedResult
C/C1=C\CC(C)(C)/C=C/CC2(C)OC2CC1 (stereo not given) | normalized growth | 1.02
CCOC(=O)NNc1nncc2ccccc12 | normalized growth | 0.975
Oc1c(Cl)cc(Cl)cc1Sc1cc(Cl)cc(Cl)c1O | normalized growth | 0.985
NC1=NCCN1CC(=O)O | normalized growth | 0.983
NC(Cn1ccc(=O)c(O)c1)C(=O)O (stereo not given) | normalized growth | 0.988
CC[N+](C)(C)c1cccc(O)c1 | normalized growth | 0.992
NCC(=O)c1ccccc1 | normalized growth | 0.996
CC(=O)N[C@@H](Cc1c[nH]c2ccccc12)C(N)=O | normalized growth | 1
CC(=O)OCC(=O)[C@@]1(O)[C@H](C)CC2C3CCC4=CC(=O)C=C[C@]4(C)[C@@]3(F)[C@@H](O)C[C@@]21C (stereo not given in full) | normalized growth | 0.997
CCN1CCN(C(=O)NC(C(=O)N[C@@H]2C(=O)N3[C@@H]2SC(C)(C)[C@@H]3C(=O)O)c2ccccc2)C(=O)C1=O (stereo not given in full) | normalized growth | 1.02

Ref: PubChem BioAssay AID1159580
